Exercise: state measured EC50 for each of the compounds provided.
target: F508delCFTR (Homo sapiens, UniProt P13569, DEL508-508); construct: expressed in transfected cells; host or cells: CFBE41o- human lung-derived epithelial cells (CFBE4lo-F508delCFTR-HRP), doxycycline-inducible; assay: Cell Surface Expression-Horse Radish Peroxidase (CSE-HRP) Assay; type: cell-based; details: CSE-HRP; with co-corrector (2 μM of 3-[(2R,4R)-4-({[1-(2,2-difluoro-1,3-benzodioxol-5-yl)cyclopropyl]carbonyl}amino)-7-methoxy-3,4-dihydro-2H-chromen-2-yl]benzoic acid); read-out: EC50 (with co-corrector)
Sequence (P13569 with tags, fused parts or gaps DEL508-508): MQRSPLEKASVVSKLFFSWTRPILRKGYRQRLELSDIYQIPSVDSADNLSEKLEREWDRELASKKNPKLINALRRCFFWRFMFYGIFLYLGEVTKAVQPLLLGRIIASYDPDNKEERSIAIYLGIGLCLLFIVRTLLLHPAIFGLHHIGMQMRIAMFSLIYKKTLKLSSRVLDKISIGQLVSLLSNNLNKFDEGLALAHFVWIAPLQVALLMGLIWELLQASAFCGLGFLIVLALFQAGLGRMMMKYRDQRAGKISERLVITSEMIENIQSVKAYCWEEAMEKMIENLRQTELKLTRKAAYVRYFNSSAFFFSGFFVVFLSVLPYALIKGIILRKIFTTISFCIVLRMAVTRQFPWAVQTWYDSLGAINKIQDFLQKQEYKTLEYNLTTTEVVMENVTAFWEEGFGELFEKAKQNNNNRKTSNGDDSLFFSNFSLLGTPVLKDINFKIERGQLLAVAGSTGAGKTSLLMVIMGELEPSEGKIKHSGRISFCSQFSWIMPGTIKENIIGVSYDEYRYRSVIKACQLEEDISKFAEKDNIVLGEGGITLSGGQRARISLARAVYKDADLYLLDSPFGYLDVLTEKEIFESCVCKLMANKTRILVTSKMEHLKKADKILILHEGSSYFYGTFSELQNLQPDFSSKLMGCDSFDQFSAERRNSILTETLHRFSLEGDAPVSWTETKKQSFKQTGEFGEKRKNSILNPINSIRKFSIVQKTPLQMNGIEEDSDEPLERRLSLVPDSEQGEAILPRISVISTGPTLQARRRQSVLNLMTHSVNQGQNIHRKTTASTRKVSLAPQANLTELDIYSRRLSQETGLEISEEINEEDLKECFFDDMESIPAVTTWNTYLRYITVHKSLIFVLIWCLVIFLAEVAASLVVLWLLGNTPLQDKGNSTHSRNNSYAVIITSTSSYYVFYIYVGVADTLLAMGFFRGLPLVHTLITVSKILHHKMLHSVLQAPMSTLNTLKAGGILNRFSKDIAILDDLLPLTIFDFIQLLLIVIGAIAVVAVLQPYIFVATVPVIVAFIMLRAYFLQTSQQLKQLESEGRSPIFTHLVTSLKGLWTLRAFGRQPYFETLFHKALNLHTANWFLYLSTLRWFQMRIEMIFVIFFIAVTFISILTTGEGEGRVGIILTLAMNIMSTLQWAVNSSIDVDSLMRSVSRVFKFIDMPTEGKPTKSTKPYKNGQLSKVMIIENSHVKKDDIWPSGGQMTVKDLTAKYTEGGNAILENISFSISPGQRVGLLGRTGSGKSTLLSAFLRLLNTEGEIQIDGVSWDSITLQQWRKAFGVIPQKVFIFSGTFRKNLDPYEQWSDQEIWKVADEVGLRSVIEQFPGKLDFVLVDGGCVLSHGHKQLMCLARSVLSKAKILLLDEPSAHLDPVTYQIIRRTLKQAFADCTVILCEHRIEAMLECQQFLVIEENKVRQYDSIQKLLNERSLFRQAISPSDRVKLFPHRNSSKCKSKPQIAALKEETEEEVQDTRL

Reference set (2 entries):
Cc1c(N[C@H]2[C@H](C(C)(C)C)[C@@H](C(=O)O)N(C(=O)C3CCCCC3)[C@H]2c2ccccc2)c(Cl)nc2ccc(F)cc12: 1 to 10 µM
CC(C)(C)[C@H]1[C@H](NCc2coc3ccccc23)[C@H](c2ccccc2)N(C(=O)C2CCCCC2)[C@@H]1C(=O)O: 1 to 10 µM

Next:
Problem: # lookup: EC50 of COc1cccc([C@@H]2[C@H](NCc3cc(Cl)ccc3OC)[C@@H](C(C)(C)C)[C@H](C(=O)O)N2C(=O)C2CCCCC2)n1 (racemic)
Solution: 1 to 10 µM

====

target: F508delCFTR (Homo sapiens, UniProt P13569, DEL508-508); construct: expressed in transfected cells; host or cells: CFBE41o- human lung-derived epithelial cells (CFBE4lo-F508delCFTR-HRP), doxycycline-inducible; experiment: Cell Surface Expression-Horse Radish Peroxidase (CSE-HRP) Assay; format: cell-based; settings: with co-corrector (2 μM of 3-[(2R,4R)-4-({[1-(2,2-difluoro-1,3-benzodioxol-5-yl)cyclopropyl]carbonyl}amino)-7-methoxy-3,4-dihydro-2H-chromen-2-yl]benzoic acid); read-out: EC50 (with co-corrector)
pEC50: −log10 of the molar value.
For each entry below, report its pEC50 value.

COc1ccc(C(C)(C)C)cc1CN[C@H]1[C@H](C(C)(C)C)[C@@H](C(=O)O)N(C(=O)c2ccc(Oc3ccccn3)cc2)[C@H]1c1cccnc1N(C)C: > 6.00
COc1ccc(C(F)(F)F)cc1CN[C@@H]1[C@@H](C(C)(C)C)[C@H](C(=O)O)N(C(=O)OC(C)C)[C@@H]1c1cccnc1N(C)C (racemic): 5.00 to 6.00
COc1ccc(C(C)(C)C)cc1CN[C@H]1[C@H](C(C)(C)C)[C@@H](C(=O)O)N(C(=O)[C@@H]2OCC[C@@H]2C(C)C)[C@H]1c1ccccc1 (relative stereo): 5.00 to 6.00
COc1ccc(C(C)(C)C)cc1CN[C@H]1[C@H](C(C)(C)C)[C@@H](C(=O)O)N(C(=O)C2(c3ccccc3)CC2)[C@H]1c1cccnc1OC: 5.00 to 6.00

Problem: # input compound: `COc1ccc(C(F)(F)F)cc1CN[C@H]1[C@H](C(C)(C)C)[C@@H](C(=O)O)N(C(=O)C2(S(C)(=O)=O)CC2)[C@H]1c1ccccc1` ; wanted: its pEC50
Solution: 5.00 to 6.00

====

Molecular target: F508delCFTR (Homo sapiens, UniProt P13569, DEL508-508)
Construct: expressed in transfected cells; host or cells: CFBE41o- human lung-derived epithelial cells (CFBE4lo-F508delCFTR-HRP), doxycycline-inducible
Assay: Cell Surface Expression-Horse Radish Peroxidase (CSE-HRP) Assay
Assay type: cell-based
Conditions: CSE-HRP; test compound without co-corrector; read-out: EC50 (without co-corrector)
Procedure: Cell Surface Expression-Horse Radish Peroxidase (CSE-HRP) Assay The development was achieved by expressing the F508delCFTR mutation along with a horseradish peroxidase (HRP) in the fourth exofacial loop, and then measuring the HRP activity using luminescence readout from these cells, CFBE4lo-F508delCFTR-HRP, that were incubated overnight with the test corrector compounds, either without or with the co-corrector. […] The raw counts from the experiment were analyzed using Accelrys® Assay Explorer v3.3. […]
pEC50: −log10 of the molar value.
For each entry below, report its pEC50 value.

COc1ccc(C(C)(C)C)cc1CN[C@H]1[C@H](C(C)(C)C)[C@@H](C(=O)O)N(C(=O)[C@@H]2CCCO2)[C@H]1c1ccccc1C: 5.00 to 6.00

Hey, quick one: what's pEC50 for each of these?
1. COc1cc(F)c(F)cc1CN[C@H]1[C@H](C(C)(C)C)[C@@H](C(=O)O)N(C(=O)C2CCCCC2)[C@H]1c1ccccc1
2. CCn1c(C)c(CC(=O)N2[C@H](C(=O)O)[C@@H](C(C)(C)C)[C@H](NCc3cc(C(C)(C)C)ccc3OC)[C@@H]2c2ccccc2)c2ccccc21
3. COc1ccc(C(C)(C)C)cc1CN[C@H]1[C@H](C(C)(C)C)[C@@H](C(=O)O)N(C(=O)Cc2cccc(F)c2)[C@H]1c1ccccc1
4. COc1ccc(C(C)(C)C)cc1CN[C@H]1[C@H](C(C)(C)C)[C@@H](C(=O)O)N(C(=O)C(C)c2ccccc2)[C@H]1c1ccccc1 (stereo partly drawn)
5. COc1cc(C(F)(F)F)ccc1CN[C@H]1[C@H](C(C)(C)C)[C@@H](C(=O)O)N(C(=O)OC(C)C)[C@H]1c1cccnc1N1CCC1

Solution:
["5.00 to 6.00", "5.00 to 6.00", "5.00 to 6.00", "5.00 to 6.00", "5.00 to 6.00"]
